Tested on: ischiadic nerve (N. ischiadieus)
Experiment Summary: Local anaesthetizing effect on the ischiadic nerve of rats (method of Truant), Lidocaine as reference
Format: in vivo
Condition Info: 0.5% concentration
Measured Quantity: Duration of effect (min)

INSERT INTO measurements (molecule, unit_annotation, reading) VALUES
  ('CN(C)CCCON=C1CCCCCCCCCCC1', 'min', 95),
  ('CC(CON=C1CCCCCCCCCCC1)CN(C)C (racemic)', 'min', 105),
  ('CCN(CC)CC(=O)Nc1c(C)cccc1C [Lidocaine, reference compound]', 'min', 28),
  ('c1ccc(CN2CCN(CCCON=C3CCCCCCCCCCC3)CC2)cc1', 'min', 134),
  ('CCN(CC)CCCON=C1CCCCCCCCCCC1', 'min', 104),
  ('CC(C)N(CCON=C1CCCCCCCCCCC1)C(C)C', 'min', 60),
  ('CCN(CC)CC(C)CON=C1CCCCCCCCCCC1 (stereo not drawn)', 'min', 240),
  ('CC(C)N(CCCON=C1CCCCCCCCCCC1)C(C)C', 'min', 240),
  ('CN(C)CCON=C1CCCCCCCCCCC1', 'min', 57);
